Test system: human telomerease (HL60 cell extract)
experimentalDetails: Antitelomerease activity: extension of oligonucleotide TS followed by PCR amplification, with HL60 extract
Type: biochemical
measurementConditions: read-out: TRAP IC50
# reported pIC50; entries follow
// returns pIC50 (minus log10 of molar concentration), number only

Worked set:
[[record]]
compound = "Cc1cc(N)c2cc(Nc3nc(NCCO)nc(Nc4ccc5nc(C)cc(N)c5c4)n3)ccc2n1"
observationtype = "pIC50"
measurednumber = 6.07

[[record]]
compound = "Cc1cc(N)c2cc(Nc3nc(Nc4ccc5nc(C)cc(N(C)C)c5c4)nc(Nc4ccccc4Cl)n3)ccc2n1"
observationtype = "pIC50"
measurednumber = 5.68

[[record]]
compound = "Cc1cc(N)c2cc(Nc3nc(Nc4ccc5nc(C)cc(N)c5c4)nc(Sc4ccc5ccccc5n4)n3)ccc2n1"
observationtype = "pIC50"
measurednumber = 6.41

[[record]]
compound = "Cc1cc(N)c2cc(Nc3nc(Nc4ccc5nc(C)cc(N)c5c4)nc(N(C)C4CCN(Cc5ccccc5)C4)n3)ccc2n1 (stereo not drawn)"
observationtype = "pIC50"
measurednumber = 6.00

[[record]]
compound = "Cc1cc(N)c2cc(Nc3nc(NCc4ccc(Cl)cc4)nc(Nc4ccc5nc(C)cc(N)c5c4)n3)ccc2n1"
observationtype = "pIC50"
measurednumber = 6.37


Value lookup for pIC50; key = `Cc1cc(N)c2cc(Nc3nc(NCCNC(C)C)nc(Nc4ccc5nc(C)cc(N)c5c4)n3)ccc2n1` 6.43

Value lookup for pIC50; key = `CCN(CC)CCSc1nc(Nc2ccc3nc(C)cc(N)c3c2)nc(Nc2ccc3nc(C)cc(N)c3c2)n1` 6.52

Value lookup for pIC50; key = `Cc1cc(N)c2cc(Nc3nc(Nc4ccc5nc(C)cc(N)c5c4)nc(OCCN(C)Cc4ccccc4)n3)ccc2n1` 6.62

---

# reported IC50; entries follow
System: human telomerease (HL60 cell extract)
experimentalDetails: Antitelomerease activity: extension of oligonucleotide TS followed by PCR amplification, with HL60 extract
Format: biochemical
measurementConditions: read-out: TRAP IC50
Your answer should be a plain number; it is taken to be in µM.

[[record]]
molecule = "Cc1cc(N)c2cc(Nc3nc(Nc4ccc5nc(C)cc(N)c5c4)nc(Nc4nccc5ccccc45)n3)ccc2n1"
measurednumber = 1.5

[[record]]
molecule = "Cc1cc(N)c2cc(Nc3nc(Nc4ccc5nc(C)cc(N)c5c4)nc(N4CCN(c5ncccn5)CC4)n3)ccc2n1"
measurednumber = 0.22

[[record]]
molecule = "Cc1cc(N(C)C)c2cc(Nc3nc(Nc4ccc5nc(C)cc(N(C)C)c5c4)nc(N4CCOCC4)n3)ccc2n1"
measurednumber = 1.6

[[record]]
molecule = "Cc1cc(N)c2cc(Nc3nc(Nc4ccc5nc(C)cc(N)c5c4)nc(Nc4cc5ccccc5cn4)n3)ccc2n1"
measurednumber = 0.45

[[record]]
molecule = "Cc1cc(N(C)C)c2cc(Nc3nc(Nc4ccc5nc(C)cc(N(C)C)c5c4)nc(NC(CO)C(=O)O)n3)ccc2n1 (stereo not shown)"
measurednumber = 0.49


# value lookup — system human telomerease (HL60 cell extract), readout IC50, item `Cc1cc(N)c2cc(Nc3nc(Nc4ccc5nc(C)cc(N)c5c4)nc(N4CCN(C5CCCCCCC5)CC4)n3)ccc2n1` 0.48

# value lookup — system human telomerease (HL60 cell extract), readout IC50, item `Cc1cc(N)c2cc(Nc3nc(NCc4cccnc4)nc(Nc4ccc5nc(C)cc(N)c5c4)n3)ccc2n1` 0.28

# value lookup — system human telomerease (HL60 cell extract), readout IC50, item `Cc1cc(N)c2cc(Nc3nc(Nc4ccc5nc(C)cc(N)c5c4)nc(Nc4ncccn4)n3)ccc2n1` 0.94

# value lookup — system human telomerease (HL60 cell extract), readout IC50, item `Cc1cc(N)c2cc(Nc3nc(Nc4ccc5nc(C)cc(N)c5c4)nc(N4CCCN(C)CC4)n3)ccc2n1` 0.05

# value lookup — system human telomerease (HL60 cell extract), readout IC50, item `Cc1cc(N)c2cc(Nc3nc(Nc4ccc5nc(C)cc(N)c5c4)nc(N4CCC(O)CC4)n3)ccc2n1` 0.39

# value lookup — system human telomerease (HL60 cell extract), readout IC50, item `Cc1cc(N)c2cc(Nc3nc(Nc4ccc5nc(C)cc(N)c5c4)nc(Sc4ccccn4)n3)ccc2n1` 0.38

# value lookup — system human telomerease (HL60 cell extract), readout IC50, item `Cc1cc(N)c2cc(Nc3nc(Nc4ccc5nc(C)cc(N)c5c4)nc(Nc4cccc5cccnc45)n3)ccc2n1` 0.69

# value lookup — system human telomerease (HL60 cell extract), readout IC50, item `Cc1cc(N)c2cc(Nc3nc(Nc4ccc5nc(C)cc(N)c5c4)nc(N4CCN(c5ccncc5)CC4)n3)ccc2n1` 0.19

# value lookup — system human telomerease (HL60 cell extract), readout IC50, item `COc1ccc(CSc2nc(Nc3ccc4nc(C)cc(N)c4c3)nc(Nc3ccc4nc(C)cc(N)c4c3)n2)cc1` 0.9

FYI, the data here is from patent US6887873B2.
